test-name: qHTS profiling of the MIPE4 collection as inhibitors of Plasmodium falciparum (HB3) proliferation (AID 743347);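 note: plate controls were DMSO vehicle wells for no effect and artemisinin wells for full effect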
measurement-conditions: P. falciparum HB3 in erythrocytes, SYBR Green DNA, 72 h; at 28.5 µM (top of the series)
Protocol: Plasmodium falciparum is a virulent malarial parasite that kills 1-2 million people worldwide each year. […] Because mature erythrocytes lack DNA, only Plasmodium-derived DNA is detected. The SYBR Green viability assay was adapted from a method described previously (Plouffe et al., 2008). […] The following morning, fluorescence intensity at 485(14) nm excitation and 535(25) nm emission wavelengths was measured on an EnVision (Perkin Elmer) plate reader. […]
Starred links: 1 amine or outer side, 2 acyl side, 3 side chain; linkers in the order of their positions; H or OH if unused. Positions of bridges follow the written chain, without caps; N, C: chain ends. Non-standard residues stand in square brackets, D forms with d. Residues, ends and D or L forms follow the SMILES beside them. *: point of attachment. X2 = NC1=C[C@@H](O)C[C@H]([C@H](N[*:1])C(=O)[*:2])N1; ΔAla(3-NHCONH2) = NC(=O)NC=C(N)C(=O)O; β3hOrn = NCCC[C@H](N)CC(=O)*; Dap = NC[C@H](N)C(=O)O
Entries whose growth, % of control is below 90% take class 1; entries at or above 90% take class 0.

{"compound": "O=CN(O)CCCP(=O)(O)O", "classification": "class 1"}
{"compound": "NCCC[C@H](N)CC(=O)N[C@H]1CNC(=O)[C@H]([C@H]2C[C@H](O)C=C(N)N2)NC(=O)C(=CNC(N)=O)NC(=O)[C@H](CO)NC(=O)[C@H](CO)NC1=O (β3hOrn-[Dap]SS[ΔAla(3-NHCONH2)][X2]; lactam 1-C)", "classification": "class 0"}
{"compound": "C[C@H]1C[C@H]2C3CCC4=CC(=O)C=C[C@@]4(C)[C@@]3(Cl)[C@@H](O)CC2(C)[C@@]1(OC(=O)c1ccco1)C(=O)CCl (stereo not given in full)", "classification": "class 1"}
{"compound": "CCCC[C@@H]1C[C@@H](C(=O)NC([C@H](C)Cl)[C@H]2O[C@H](S)[C@H](O)[C@@H](O)[C@@H]2O)N(C)C1 (stereo not given in full)", "classification": "class 1"}
{"compound": "CCOc1ccc(F)cc1C1(O)C(N)=Nc2ccc(Cl)cc21 (stereo not given)", "classification": "class 1"}
{"compound": "C[C@H]1CCN(C(=O)CC#N)C[C@H]1N(C)c1ncnc2[nH]ccc12", "classification": "class 0"}
{"compound": "Cc1nc2c(C#N)cccc2n1-c1ccc(C(=O)NC2CC2)s1", "classification": "class 1"}
{"compound": "CC(C)=CCCC(C)=CCNCCNC1C2CC3CC(C2)CC1C3 (stereo not given)", "classification": "class 1"}
{"compound": "CN(C)CCC=C1c2ccccc2COc2ccccc21", "classification": "class 0"}

* * *

subject-of-test: Cytochrome P450 3A4 (Homo sapiens)
test-name: qHTS Assay for Activators of Cytochrome P450 3A4 (AID 885); note: nearly all actives have a fitted effect of over 65% in size
measurement-conditions: recombinant CYP3A4, Luciferin-PPXE luminescence, 60 min; series mostly up to 57.1 µM
Active and inactive are the calls of the source. Calls come from the whole dose curve; as a rule, active = well fitted activation curve with a large enough effect; inconclusive = small, poorly fitted or top-dose-only effect; inactive = no such curve, though single readings can be large or run the other way.
metric: activity change, positive = activation

{"molecule": "COc1ccc(/C=C/NC(=O)c2ccc(OC)cc2)cc1", "result": "-68.6% [at 11.4 µM] (inactive)"}
{"molecule": "COc1ccc(/C=C/C(=O)c2ccc(OC)cc2O)cc1", "result": "-92.3% [at 11.4 µM] (inactive)"}
{"molecule": "FC(F)(F)c1ccc(C2[C@H]3CN(CC4CCCCC4)[C@H](c4ccccc4)C34CC2(c2cccnc2)C4)cc1 (stereo partly drawn)", "result": "inactive"}
{"molecule": "CC(=O)N1C2(C=CC1(C)C(=O)NCCN1CCOCC1)CCCCC2 (stereo not drawn)", "result": "inactive"}
{"molecule": "CCC1=C2CC[C@H]3C(=O)N(CC(=O)OC)C(=O)[C@H]3[C@H]2[C@@]2(C)C(=O)N(CC3CC3)C(=O)N2C1=O", "result": "inactive"}
{"molecule": "CCC1=C2CC[C@H]3C(=O)N(c4ccccc4)C(=O)[C@H]3[C@H]2[C@@]2(C)C(=NCC(=O)OC)OC(=O)N2C1=O", "result": "inactive"}
{"molecule": "COC(=O)C1=C(C)N(Cc2ccccc2)[C@]23O[C@](C(=O)OC)(C(=O)N2C1c1ccccc1)C(C(=O)OC)C3C(=O)OC (stereo partly drawn)", "result": "-46.5% [at 11.4 µM] (inactive)"}
{"molecule": "CC(C)(C)N1C(=O)[C@H]2[C@H]3[C@H](O)[C@H](O)C/C(=N/OC[C@@H](O)COCc4ccco4)[C@H]3CC[C@@H]2C1=O", "result": "-30.9% [at 11.4 µM] (inactive)"}

* * *

test-name: Confirmation and Secondary Assay for Modulators of Hemoglobin Beta Chain Splicing at IVS2 654 locus (AID 910);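 note: HeLa cells stably carrying EGFP split by mutant beta-globin IVS2-654 intron; per-well total GFP intensity by laser scanning cytometry after 2-day treatment; % of control where 0% means no effect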
measurement-conditions: HeLa EGFP-654 splicing reporter, GFP fluorescence, 48 h; series mostly up to 46.1 µM
The source made the active and inactive calls. Calls follow the shape of the dose curve; as a rule, active = well fitted activation curve with a large enough effect; inconclusive = small, poorly fitted or top-dose-only effect; inactive = flat fitted curve, though single readings scatter.

{"compound": "C=C1C(=O)OC2C[C@@]3(C)CCCC(C)C3=CC12 (stereo not given in full)", "outcome": "inactive"}
{"compound": "COc1cc2c(cc1OC)C(=O)OC2", "outcome": "inactive"}
{"compound": "CC1C(NC(=O)/C(=N/OC(C)(C)C(=O)O)c2csc(N)n2)C(=O)N1S(=O)(=O)O (stereo not given)", "outcome": "inactive"}
{"compound": "C=C1C([C@@]2(C)C(OC(C)=O)CC(=O)O[C@@](C)(COC(C)=O)C2CC(=O)OC)C(OC=O)C(OC(=O)C(O)C(C)CC)[C@]2(C)C(c3ccoc3)CC(=O)C12O (stereo not given in full)", "outcome": "inactive"}
{"compound": "CC(=O)OC1CC2C(C)(C)C(=O)CC[C@]2(C)C2CC[C@]3(C)C(=CC(=O)OC3c3ccoc3)[C@]12C (stereo not given in full)", "outcome": "inactive"}

* * *

test-name: qHTS assay for cell viability of HEK293 cells (AID 743288); note: % is set by controls: 0 for no effect and ±100 for the full control effect; nearly all actives have a fitted effect of over 50% in size
measurement-conditions: ATP luminescence (CellTiter-Glo), 18 h; stronger effect = lower value
Inconclusive results are not listed.
metric: max response (%)

{"molecule": "CCOC(=O)C(C)Oc1ccc(Oc2nc3ccc(Cl)cc3o2)cc1 (stereo not drawn)", "recorded-number": 2.68}
{"molecule": "CCCCOCCOCCOCCO", "recorded-number": -2.85}
{"molecule": "S=C([S-])NCCNC(=S)[S-].S=C([S-])NCCNC(=S)[S-].[Mn+2].[Zn+2]", "recorded-number": 2.96}
{"molecule": "CCCCC(CC)COC(=O)/C=C\\C(=O)OCC(CC)CCCC (stereo not drawn)", "recorded-number": -2.82}
{"molecule": "CNc1nc(=O)n(C2CCC(O)CC2)c(=O)n1C (stereo not drawn)", "recorded-number": -1.62}
{"molecule": "CCCCCCC(O)CCCCCCCCCCC(=O)O (stereo not drawn)", "recorded-number": -10.3}
{"molecule": "CCC(C)(C)C1CCC(O)CC1 (stereo not drawn)", "recorded-number": -3.71}
{"molecule": "C/C=C/C/C=C\\CCCCCCCCOC(C)=O", "recorded-number": 0.639}
{"molecule": "CCCCCCCCCC[N+](C)(C)Cc1ccccc1", "recorded-number": -27.5}
{"molecule": "C[Si]1(C)O[Si](C)(C)O[Si](C)(C)O[Si](C)(C)O1", "recorded-number": 0.965}
{"molecule": "CCCCOCCOCCOC(C)=O", "recorded-number": 5.77}
{"molecule": "COc1ccccc1NC(=O)CC(C)=O", "recorded-number": -19.2}
{"molecule": "CCCCCCCC(=O)OC", "recorded-number": -6.4}

* * *

subject-of-test: Peroxisome proliferator-activated receptor gamma (Homo sapiens) (UniProt P37231)
Sequence (P37231 whole entry, looked up): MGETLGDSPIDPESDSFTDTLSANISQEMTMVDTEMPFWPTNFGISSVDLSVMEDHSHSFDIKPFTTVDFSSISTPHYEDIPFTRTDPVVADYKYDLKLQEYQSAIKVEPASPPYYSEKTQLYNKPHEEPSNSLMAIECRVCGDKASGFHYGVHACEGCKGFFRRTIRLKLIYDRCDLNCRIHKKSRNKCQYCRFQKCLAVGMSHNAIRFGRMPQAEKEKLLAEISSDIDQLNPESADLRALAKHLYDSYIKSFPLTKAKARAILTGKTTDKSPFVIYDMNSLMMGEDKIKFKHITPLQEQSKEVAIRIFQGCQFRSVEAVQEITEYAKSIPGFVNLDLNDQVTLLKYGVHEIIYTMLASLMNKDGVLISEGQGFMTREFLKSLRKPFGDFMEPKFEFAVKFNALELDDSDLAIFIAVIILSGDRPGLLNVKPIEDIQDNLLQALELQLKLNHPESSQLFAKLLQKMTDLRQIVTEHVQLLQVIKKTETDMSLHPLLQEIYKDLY
test-name: qHTS assay for small molecule antagonists of peroxisome proliferator-activated receptor gamma signaling (AID 588537)
measurement-conditions: HEK293 PPARg-UAS-bla, beta-lactamase ratio, antagonist mode; series mostly up to 76.8 µM
Inconclusive results are not listed. Calls of active or inactive are those of the source. Calls follow the shape of the dose curve; as a rule, active = well fitted inhibition curve with a large enough effect in the signal ratio, with a control signal flat (not every such curve was filed as active); inconclusive = small, poorly fitted or top-dose-only effect, or effect the other way, or a change in a side signal; inactive = flat fitted curve, though single readings scatter; the % refers to the signal ratio.
Outcomes: active, inactive

{"compound": "CC(C)(C)[C@H](O)[C@H](Cc1ccc(Cl)cc1)n1cncn1", "classification": "inactive"}
{"compound": "C=C(C)C(=O)OCCC[Si](Cl)(Cl)Cl", "classification": "inactive"}
{"compound": "CNc1nc(=O)n(C2CCC(O)CC2)c(=O)n1C (configuration not stated)", "classification": "inactive"}
{"compound": "CC(=O)OC(C)(C)C1CC=C(C)CC1 (configuration not stated)", "classification": "inactive"}
{"compound": "COC(=O)c1c(Cl)nn(C)c1S(=O)(=O)NC(=O)Nc1nc(OC)cc(OC)n1", "classification": "inactive"}
{"compound": "c1ccc2c(c1)ccc1c3ccccc3ccc21", "classification": "inactive"}
{"compound": "CC[C@H]1O[C@]2(CC[C@@H]1C)C[C@@H]1C[C@@H](C/C=C(\\C)C[C@@H](C)/C=C/C=C3CO[C@@H]4[C@H](O)C(C)=C[C@@H](C(=O)O1)[C@]34O)O2", "classification": "active"}
{"compound": "CN(C)c1nc(=O)n(C2CCC(O)CC2)c(=O)n1C (configuration not stated)", "classification": "inactive"}
{"compound": "CCOC(=O)CCCCCCCCC(=O)OCC", "classification": "inactive"}
{"compound": "S=C([S-])NCCNC(=S)[S-].[Mn+2]", "classification": "inactive"}
{"compound": "CSc1ccc(Cl)cc1", "classification": "inactive"}
{"compound": "CC(C)OC(=O)c1ccccc1C(=O)OC(C)C", "classification": "inactive"}
